- Target Or Test System: EGFR wildtype (WT) (Homo sapiens, UniProt P00533)
- Sequence (P00533 25-1210): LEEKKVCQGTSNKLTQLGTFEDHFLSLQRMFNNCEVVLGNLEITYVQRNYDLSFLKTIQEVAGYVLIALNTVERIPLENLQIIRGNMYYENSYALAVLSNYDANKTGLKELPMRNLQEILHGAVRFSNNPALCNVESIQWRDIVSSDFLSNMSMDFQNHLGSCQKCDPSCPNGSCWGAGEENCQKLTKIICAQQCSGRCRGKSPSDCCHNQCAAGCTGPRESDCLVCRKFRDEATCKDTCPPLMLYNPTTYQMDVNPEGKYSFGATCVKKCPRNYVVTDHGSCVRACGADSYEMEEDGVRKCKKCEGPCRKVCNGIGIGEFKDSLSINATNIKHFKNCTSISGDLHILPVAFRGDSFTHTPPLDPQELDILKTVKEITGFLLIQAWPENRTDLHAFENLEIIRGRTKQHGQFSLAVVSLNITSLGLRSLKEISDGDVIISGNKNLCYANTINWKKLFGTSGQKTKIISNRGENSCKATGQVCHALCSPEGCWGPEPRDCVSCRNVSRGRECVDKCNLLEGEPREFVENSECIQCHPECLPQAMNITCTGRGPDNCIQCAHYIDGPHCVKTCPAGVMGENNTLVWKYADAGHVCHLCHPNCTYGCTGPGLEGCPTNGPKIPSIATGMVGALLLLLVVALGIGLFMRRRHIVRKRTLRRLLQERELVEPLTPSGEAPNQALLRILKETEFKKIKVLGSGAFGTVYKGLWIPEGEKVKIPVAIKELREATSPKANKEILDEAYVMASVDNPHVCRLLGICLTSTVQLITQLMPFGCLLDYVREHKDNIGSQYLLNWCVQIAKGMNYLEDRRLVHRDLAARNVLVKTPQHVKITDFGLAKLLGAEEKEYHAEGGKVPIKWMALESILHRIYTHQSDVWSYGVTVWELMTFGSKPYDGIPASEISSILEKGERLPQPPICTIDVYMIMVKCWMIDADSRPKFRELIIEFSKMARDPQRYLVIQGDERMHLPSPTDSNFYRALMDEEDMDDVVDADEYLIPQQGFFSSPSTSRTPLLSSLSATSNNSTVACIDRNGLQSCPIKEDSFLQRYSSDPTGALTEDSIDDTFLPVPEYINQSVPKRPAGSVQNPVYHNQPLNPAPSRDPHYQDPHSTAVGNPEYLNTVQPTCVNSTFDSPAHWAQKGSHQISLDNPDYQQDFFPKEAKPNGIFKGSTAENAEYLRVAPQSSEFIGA
- Assay: Biochemical EGFR kinase inhibition assay (Lance Ultra TR-FRET), wildtype
- Test Conditions: IC50 WT (nM), 100 μM ATP
Property Measured: IC50

Indicate its recorded IC50; the compound in question is CC1(O)CCN(c2cc(Nc3ccnc(-c4cnn(S(=O)(=O)C5CC5)c4)n3)ncc2C#Cc2cccnc2)CC1
> 10000 nM

Please report IC50 for the following compound: O=S(=O)(C1CC1)N1CCC(C#Cc2cnc(Nc3ccnc(-c4cnn(S(=O)(=O)C5CC5)c4)n3)cc2NC2CCC(CO)CC2)C1 (stereo not shown)
> 10000 nM

Quick one: give measured IC50 for CN(C)CCn1cc(C#Cc2cnc(Nc3ccnc(-c4cnn(S(=O)(=O)C5CC5)c4)n3)cc2N2CCC(F)(CO)CC2)cn1
1020 nM

Fill in IC50 for record CN(C)CCC1CCCN(c2cc(Nc3ccnc(-c4cnn(S(=O)(=O)C5CC5)c4)n3)ncc2C#Cc2cnn(C)c2)C1 (stereo not shown)
3390 nM

// fetch IC50 given entry CC1(O)CCN(c2cc(Nc3ccnc(-c4cnn(S(=O)(=O)C5CC5)c4)n3)ncc2C#CC2CC3CCC2O3)CC1 (stereo not shown)
5450 nM

Return the recorded IC50 value; entry: O=S(=O)(C1CC1)n1cc(-c2nccc(Nc3cc(N4CCC(F)(CO)CC4)c(C#Cc4cnn(C(F)(F)F)c4)cn3)n2)cn1
> 10000 nM

Using known records, supply IC50 for Cn1ccc(C#Cc2cnc(Nc3ccnc(-c4cnn(S(=O)(=O)C5CC5)c4)n3)cc2N2CCC(C)(CO)CC2)n1
> 10000 nM

----------
- Target Or Test System: EGFR Del19/T790M/C797S (Homo sapiens, UniProt P00533, C797S/DEL746-750/T790M)
- Sequence (P00533 with tags, fused parts or gaps DEL746-750/T790M/C797S): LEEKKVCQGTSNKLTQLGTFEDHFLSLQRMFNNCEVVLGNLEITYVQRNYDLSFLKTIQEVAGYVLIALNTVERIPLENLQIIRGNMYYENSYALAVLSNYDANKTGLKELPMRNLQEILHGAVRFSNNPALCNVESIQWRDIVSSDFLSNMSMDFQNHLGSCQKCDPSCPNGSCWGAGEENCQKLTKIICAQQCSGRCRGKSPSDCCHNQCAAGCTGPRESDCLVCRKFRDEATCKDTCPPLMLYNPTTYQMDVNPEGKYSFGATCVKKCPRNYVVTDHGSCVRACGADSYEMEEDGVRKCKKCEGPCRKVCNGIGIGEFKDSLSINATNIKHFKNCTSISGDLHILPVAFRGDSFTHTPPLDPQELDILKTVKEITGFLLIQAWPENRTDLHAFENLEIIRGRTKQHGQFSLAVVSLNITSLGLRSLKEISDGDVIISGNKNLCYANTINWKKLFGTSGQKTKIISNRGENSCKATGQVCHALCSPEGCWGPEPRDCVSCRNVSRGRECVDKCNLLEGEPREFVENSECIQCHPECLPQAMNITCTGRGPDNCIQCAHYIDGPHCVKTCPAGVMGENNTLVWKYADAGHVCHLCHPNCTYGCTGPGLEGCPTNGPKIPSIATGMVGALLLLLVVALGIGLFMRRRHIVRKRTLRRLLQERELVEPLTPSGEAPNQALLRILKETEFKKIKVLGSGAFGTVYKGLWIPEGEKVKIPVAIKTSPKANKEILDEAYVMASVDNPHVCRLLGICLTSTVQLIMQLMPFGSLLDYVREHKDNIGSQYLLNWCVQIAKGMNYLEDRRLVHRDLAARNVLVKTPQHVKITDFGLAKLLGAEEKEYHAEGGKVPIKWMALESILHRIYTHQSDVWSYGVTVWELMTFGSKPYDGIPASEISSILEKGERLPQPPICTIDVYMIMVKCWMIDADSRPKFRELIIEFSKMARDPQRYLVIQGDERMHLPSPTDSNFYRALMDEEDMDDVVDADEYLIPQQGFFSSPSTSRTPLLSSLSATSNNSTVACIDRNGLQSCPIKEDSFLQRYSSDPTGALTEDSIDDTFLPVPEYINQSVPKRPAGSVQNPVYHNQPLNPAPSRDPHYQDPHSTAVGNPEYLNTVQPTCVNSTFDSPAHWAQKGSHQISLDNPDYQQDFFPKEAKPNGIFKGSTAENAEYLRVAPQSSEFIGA
- Assay: Biochemical EGFR kinase inhibition assay (Lance Ultra TR-FRET), triple mutant del19/T790M/C797S
- Test Conditions: ATP at Km; read-out: IC50 Del19/T790M/C797S (nM), Km ATP
Property Measured: IC50 (nM)
Numbers only here, please. The scale is nM.

Solved cases below.
>>> recorded_value("C[C@]1(O)CC[C@@H](Nc2cc(Nc3ccnc(-c4cnn(S(=O)(=O)C5CC5)c4)n3)ncc2C#Cc2cnn(CC(F)F)c2)CC1")
0.3
>>> recorded_value("CC(C)Nc1cc(Nc2ccnc(-c3cnn(S(=O)(=O)C4CC4)c3)n2)ncc1C#CCCCC(=O)N1CCOCC1")
5.1
>>> recorded_value("CC(C)Nc1cc(Nc2ccnc(-c3cnn(S(=O)(=O)C4CC4)c3)n2)ncc1C#Cc1csc(C2CC2)n1")
18.3

Note down IC50 recorded for CC(C)Nc1cc(Nc2ccnc(-c3cnn(S(=O)(=O)C4CC4)c3)n2)ncc1C#CCN1CCOCC1
2.2

Please report the measured IC50 for CC1(CO)CCN(c2cc(Nc3ccnc(-c4cnn(S(=O)(=O)C5CC5)c4)n3)ncc2C#Cc2ncc(CN3CCOCC3)cn2)CC1
0.5

Item CC1(C#Cc2cnc(Nc3ccnc(-c4cnn(S(=O)(=O)C5CC5)c4)n3)cc2N2CCC(C)(CO)CC2)CCOCC1 : provide IC50
2

Please report IC50 for the following compound: CN(C)CCCn1cc(C#Cc2cnc(Nc3ccnc(-c4cnn(S(=O)(=O)C5CC5)c4)n3)cc2N2CCC3(CC2)CC(C)(O)C3)cn1
0.2

Using known records, supply IC50 for O=S(=O)(C1CC1)n1cc(-c2nccc(Nc3cc(N4CCC5(CCO5)CC4)c(C#Cc4cccnc4)cn3)n2)cn1
2

Please look at this compound and report its IC50: Cn1cnc(C#Cc2cnc(Nc3ccnc(-c4cnn(S(=O)(=O)C5CC5)c4)n3)cc2N[C@H]2CC[C@@H](O)CC2)n1
3.7

Give me measured IC50, please, for this compound: O=S(=O)(C1CC1)n1cc(-c2nccc(Nc3cc(N[C@H]4CC[C@@H](O)CC4)c(C#CC4CCOCC4)cn3)n2)cn1
0.3

Consider the compound CC1(CO)CCN(c2cc(Nc3ccnc(-c4cnn(S(C)(=O)=O)c4)n3)ncc2C#Cc2cnn(C(F)(F)F)c2)CC1 and give its recorded IC50.
2.4
